This collection of values is drawn from patent US20190315886A1.

Biological target: T1, human prothrombin with His tag (human, UniProt P00734 44-622)
T1 construct: also called h-prothrombin-his
Experiment: Biacore
quantity measured: Kd (nM)
Reply with just the number (in nM).

Per the record, aTM-7 (antibody, V domains shown) VH: EVQLVESGGGLVQPGGSLRLSCAASGFTFSDYYMAWVRQAPGKGLEWVSNINSDGSSTYYLDSLKSRFTISRDNSKNTLYLQMNSLKAEDTAVYYCARDHYMGNSYVFDTWGQGTTVTVSS VL: DIQMTQSPSSLSASVGDRVTITCKASEDIYNRLAWYQQKPGKAPRLIISGATSLETGVPSRFSGSGSGKDYTLTISSLQPEDFATYYCQQYWSTPWTFGGGTKVEIK has Kd of 2.05

Per the record, aTM-4 (antibody, V domains shown) VH: EVQLVESGGGLVQPGGSLRLSCAASGFTFSDYYMAWVRQAPGKGLEWVSNINSDGSSTYYLDSLKSRFTISRDNSKNTLYLQMNSLKAEDTAVYYCARDHYLGNSYVFDLWGQGTTVTVSS VL: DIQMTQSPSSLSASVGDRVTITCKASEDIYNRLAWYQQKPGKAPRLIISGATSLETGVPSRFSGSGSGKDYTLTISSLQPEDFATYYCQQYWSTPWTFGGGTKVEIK has Kd of 2.62

Per the record, humanized antibody h1601-008 (antibody, human IgG4 S228P, kappa, V domains shown) VH: EVQLVESGGGLVQPGGSLRLSCAASGFTFSDYYMAWVRQAPGKGLEWVSNINSDGSSTYYLDSLKSRFTISRDNSKNTLYLQMNSLKAEDTAVYYCARDHYHGNSYVFDYWGQGTTVTVSS VL: DIQMTQSPSSLSASVGDRVTITCKASEDIYNRLAWYQQKPGKAPRLIISGATSLETGVPSRFSGSGSGKDYTLTISSLQPEDFATYYCQQYWSTPWTFGGGTKVEIKR has Kd of 76.8

Per the record, aTM-1 (antibody, V domains shown) VH: EVQLVESGGGLVQPGGSLRLSCAASGFTFSDYYMAWVRQAPGKGLEWVSNINSDGSSTYYLDSLKSRFTISRDNSKNTLYLQMNSLKAEDTAVYYCARDHYIGASYVFDYWGQGTTVTVSS VL: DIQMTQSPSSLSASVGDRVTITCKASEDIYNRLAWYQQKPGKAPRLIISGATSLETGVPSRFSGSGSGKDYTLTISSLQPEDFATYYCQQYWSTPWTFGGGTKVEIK has Kd of 3.48
